test: Concentrations in urine of mice after a single oral administration; format: in vivo; settings: mouse, 1.56 mg/kg oral, 24-27 hours, mean ±S.E., read-out: Urinary level
Assay Readout: concentration at 27 h (ng/mL)
Give a bare numeral; the unit ng/mL is implied.

Summary for this compound, CCn1cc(C(=O)O)c(=O)c2cc(F)c(N3CCNCC3)cc21 [Compound (II)] : concentration at 27 h is 30
